Reference source for all entries: ChEMBL document CHEMBL2331322

Exercise: state measured zone of inhibition at 1000 µg/mL for each of the compounds provided.
# Test system: Bacillus subtilis
# test-details: Antimicrobial activity against Bacillus subtilis at 1 mg/mL after 24 hrs by agar disc diffusion method
# Assay type: functional
# conditions: read-out: DIZ
Hi, when you answer, please include the unit after the number. Thanks!

Sample answers from the record:
> print(dat)
                                   compound                        value.kind  result
1  COc1cc(-c2c(C#N)c(N)c3ccccc3c2C#N)cc(OC)c1OC  zone of inhibition at 1000 µg/mL   26 mm
2  COc1ccc(C2C(C#N)c3ccccc3C(=N)C2(C#N)C#N)cc1 (centres undefined)  zone of inhibition at 1000 µg/mL   15 mm
3         N#C/C(=C\c1ccc(Cl)cc1)c1ccccc1C#N  zone of inhibition at 1000 µg/mL   21 mm
4  N#Cc1ccccc1C(C#N)/N=N/c1ccc([N+](=O)[O-])cc1 (centres undefined)  zone of inhibition at 1000 µg/mL   43 mm
5  CCOC(=O)c1c2[nH]c(=N)c3ccccc3c2nn1-c1ccc(C)cc1  zone of inhibition at 1000 µg/mL   32 mm
6  N#CC1c2ccccc2C(=N)C(C#N)(C#N)C1c1ccc(Cl)cc1 (centres undefined)  zone of inhibition at 1000 µg/mL   20 mm
7    Cc1ccc(-n2nc3[nH]c(=N)c4ccccc4c3n2)cc1  zone of inhibition at 1000 µg/mL   30 mm
8  N#Cc1ccccc1C(/N=N/c1ccccc1)C(N)=O (centres undefined)  zone of inhibition at 1000 µg/mL   37 mm

// input: 6 compounds below; output: zone of inhibition at 1000 µg/mL for each
1. COc1ccc(/C=C(\C#N)c2ccccc2C#N)cc1
2. CC(=O)OCC1=C(C(=O)O)N2C(=O)[C@@H](NC(=O)Cc3cccs3)[C@H]2SC1 [CEPHALOTHIN]
3. N#CCc1ccccc1C#N
4. Cc1ccc(/N=N/C(C#N)c2ccccc2C#N)cc1 (centres undefined)
5. CCOC(=O)c1c2[nH]c(=N)c3ccccc3c2nn1-c1ccc(OC)cc1
6. O=C(N[C@H](CO)[C@H](O)c1ccc([N+](=O)[O-])cc1)C(Cl)Cl [CHLORAMPHENICOL]

Ans:
26 mm
36 mm
15 mm
35 mm
40 mm
44 mm
